Field: IC50. Provide a value for each of the molecules that follow.
# TARGET_OR_TEST_SYSTEM: Human Axl (Homo sapiens, UniProt P30530, Q764R)
# Construct: Human Axl (residues H473-A894 with Q764R, 161 nM)
# Sequence (P30530 473-894 Q764R): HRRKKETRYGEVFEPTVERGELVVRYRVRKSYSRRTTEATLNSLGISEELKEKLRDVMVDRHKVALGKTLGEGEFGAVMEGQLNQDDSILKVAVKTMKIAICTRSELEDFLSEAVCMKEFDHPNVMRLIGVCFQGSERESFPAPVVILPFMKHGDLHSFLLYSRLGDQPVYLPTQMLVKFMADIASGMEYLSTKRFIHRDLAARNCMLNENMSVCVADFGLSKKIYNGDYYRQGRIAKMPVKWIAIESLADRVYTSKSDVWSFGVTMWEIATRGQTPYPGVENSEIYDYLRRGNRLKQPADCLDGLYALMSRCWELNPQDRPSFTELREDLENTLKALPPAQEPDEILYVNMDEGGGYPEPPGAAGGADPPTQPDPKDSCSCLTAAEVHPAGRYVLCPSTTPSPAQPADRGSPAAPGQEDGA
# PROTOCOL: Human AXL kinase assay (33P-phosphoryl transfer radiometric, KinaseProfiler)
# CONDITION_DESCRIPTION: biochemical activity; 10 μM ATP

Ask | Name the recorded IC50 for `O=C(Nc1ccc(F)cc1)C1(C(=O)Nc2ccc(Oc3ccnc4cc(-c5cnc[nH]5)ccc34)cc2)CC1` .
Reply | ≤ 10 nM

Ask | Another molecule: `CNC(=O)c1cc2c(Oc3ccc(NC(=O)C4(C(=O)Nc5ccc(F)cc5)CC4)cc3)ccnc2cc1-c1cnn(C)c1`
Reply | 10 to 100 nM

Ask | Next: `CC(=O)N1CCC(n2cc(-c3ccc4c(Oc5ccc(NC(=O)C6(C(=O)Nc7ccc(F)cc7)CC6)cc5)ccnc4c3)cn2)CC1`
Reply | ≤ 10 nM

Ask | Next record, please: CN(C(=O)C1(C(=O)Nc2ccc(Oc3ccnc4cc(-c5cnn(C)c5)ccc34)cc2)CC1)c1ccc(F)cc1 [Compound 82A]
Reply | 100 to 1000 nM

Ask | And for `Cn1ncc(-c2ccc3c(Oc4ccc(NC(=O)C5(C(=O)Nc6ccc(F)cc6)CC5)cc4)ccnc3c2)n1` ?
Reply | ≤ 10 nM

Ask | What about this molecule? `O=C(Nc1ccc(F)cc1)C1(C(=O)Nc2ccc(Oc3ccnc4cc(-c5cn[nH]c5)ccc34)cc2)CC1`
Reply | ≤ 10 nM

Ask | Repeat with `CC(C)(C)n1cc(-c2ccc3c(Oc4ccc(NC(=O)C5(C(=O)Nc6ccc(F)cc6)CC5)cc4)ccnc3c2)cn1`
Reply | 10 to 100 nM

====

For each record, write down the corresponding IC50.
# TARGET_OR_TEST_SYSTEM: AXL (Homo sapiens, UniProt P30530)
# Construct: endogenous in cells
# PROTOCOL: AXL autophosphorylation ELISA in A-172 cells
# CONDITION_DESCRIPTION: cellular activity, Gas6-stimulated, phospho-AXL ELISA

Ask | Any idea what IC50 was measured for `Cc1cc2c(Oc3ccc(NC(=O)C4(C(=O)Nc5ccc(F)cc5)CC4)cc3)ccnc2cc1-c1cn[nH]c1` ?
Reply | 10 to 100 nM

Ask | Ok, now `O=C(Nc1ccc(F)cc1)C1(C(=O)Nc2ccc(Oc3ccnc4cc(-c5nnco5)ccc34)cc2)CC1`
Reply | 10 to 100 nM

Ask | Another molecule to check: `Cc1cc2c(Oc3ccc(NC(=O)C4(C(=O)Nc5ccc(F)cc5)CC4)cc3)ccnc2cc1-c1cnn(C)c1`
Reply | 10 to 100 nM

Ask | Please give the result for `CN1CCN(c2cc(-c3ccc4c(Oc5ccc(NC(=O)C6(C(=O)Nc7ccc(F)cc7)CC6)cc5)ccnc4c3)ccn2)CC1` too.
Reply | 10 to 100 nM

Ask | // same read-out, input: `N#Cc1ccc(-c2ccc3c(Oc4ccc(NC(=O)C5(C(=O)Nc6ccc(F)cc6)CC5)cc4)ccnc3c2)cn1`
Reply | 10 to 100 nM

Ask | Now give it for `O=C(Nc1ccc(F)cc1)C1(C(=O)Nc2ccc(Oc3ccnc4cc(-c5cnn(C6CCNCC6)c5)ccc34)cc2)CC1` too.
Reply | ≤ 10 nM

Ask | Then `Cc1cncc(-c2ccc3c(Oc4ccc(NC(=O)C5(C(=O)Nc6ccc(F)cc6)CC5)cc4)ccnc3c2)c1` ?
Reply | > 300 nM
